# PROTOCOL_SUMMARY: Mouse pharmacokinetic (PK) study
# Assay type: in vivo, CD-1 mice
# ASSAY_SETUP: mouse, plasma; CD-1 mice, 13.307 mg/kg PO
# Procedure: Compound 2 was dosed at 5 mg/kg IV (intravenous) or 10 mg/kg PO (oral administration) to CD-1 mice. Following administration, blood samples were collected at pre-determined time points from five mice via serial bleeding of the tail vein. […] PK parameters were calculated using non-compartmental analysis in WinNonlin v6.3. Compound 1 was dosed at 5 mg/kg IV or 12 mg/kg PO to CD-1 mice. […] PK parameters were calculated using non-compartmental analysis in WinNonlin v6.3. […]
ASSAY_METRIC: half-life (h)
Provide the reading as a plain figure in h.

stdin: Find the recorded half-life belonging to `C/C(=C\C=C\[C@@H](C)c1ccccn1)[C@H]1OC(=O)C[C@H](O)CC[C@@](C)(O)[C@@H](OC(=O)N2CCC(N3CCCCCC3)CC2)/C=C/[C@@H]1C` and report it.
stdout: 3.32

---

# PROTOCOL_SUMMARY: Mouse pharmacokinetic (PK) study
# Assay type: in vivo, CD-1 mice
# ASSAY_SETUP: mouse, plasma; CD-1 mice, 13.307 mg/kg PO
ASSAY_METRIC: Tmax (h)
Provide the reading as a plain figure in h.

stdin: Find the recorded Tmax belonging to `C/C(=C\C=C\[C@@H](C)c1ccccn1)[C@H]1OC(=O)C[C@H](O)CC[C@@](C)(O)[C@@H](OC(=O)N2CCC(N3CCCCCC3)CC2)/C=C/[C@@H]1C` and report it.
stdout: 2

---

# PROTOCOL_SUMMARY: Mouse pharmacokinetic (PK) study
# Format: in vivo, CD-1 mice
# ASSAY_SETUP: mouse, plasma; CD-1 mice, 5 mg/kg IV (Table 5); read-out: CL (converted)
ASSAY_METRIC: clearance
The answer should read as a number with its unit following.

stdin: Find the recorded clearance belonging to `C/C(=C\C=C\[C@@H](C)c1ccccn1)[C@H]1OC(=O)C[C@H](O)CC[C@@](C)(O)[C@@H](OC(=O)N2CCN(C3CCCCCC3)CC2)/C=C/[C@@H]1C` and report it.
stdout: 17.8 mL/min/kg

---

# PROTOCOL_SUMMARY: Mouse pharmacokinetic (PK) study
# Type: in vivo, CD-1 mice
# ASSAY_SETUP: mouse, plasma; CD-1 mice, 10 mg/kg PO
ASSAY_METRIC: AUC(0-t) (ng·h/mL)
Provide the reading as a plain figure in ng·h/mL.

stdin: Find the recorded AUC(0-t) belonging to `C/C(=C\C=C\[C@@H](C)c1ccccn1)[C@H]1OC(=O)C[C@H](O)CC[C@@](C)(O)[C@@H](OC(=O)N2CCN(C)CC2)/C=C/[C@@H]1C` and report it.
stdout: 2510

---

# PROTOCOL_SUMMARY: Mouse pharmacokinetic (PK) study
# Format: in vivo, CD-1 mice
# ASSAY_SETUP: mouse, plasma; CD-1 mice, 12 mg/kg PO
ASSAY_METRIC: Cmax (ng/mL)
Provide the reading as a plain figure in ng/mL.

stdin: Find the recorded Cmax belonging to `C/C(=C\C=C\[C@@H](C)c1ccccn1)[C@H]1OC(=O)C[C@H](O)CC[C@@](C)(O)[C@@H](OC(=O)N2CCN(C3CCCCCC3)CC2)/C=C/[C@@H]1C` and report it.
stdout: 1810

---

# PROTOCOL_SUMMARY: Mouse pharmacokinetic (PK) study
# Type: in vivo, CD-1 mice
# ASSAY_SETUP: mouse, plasma; CD-1 mice, 12 mg/kg PO
ASSAY_METRIC: Tmax (min)
Provide the reading as a plain figure in min.

stdin: Find the recorded Tmax belonging to `C/C(=C\C=C\[C@@H](C)c1ccccn1)[C@H]1OC(=O)C[C@H](O)CC[C@@](C)(O)[C@@H](OC(=O)N2CCN(C3CCCCCC3)CC2)/C=C/[C@@H]1C` and report it.
stdout: 30

---

# PROTOCOL_SUMMARY: Mouse pharmacokinetic (PK) study
# Assay type: in vivo, CD-1 mice
# ASSAY_SETUP: mouse, plasma; CD-1 mice, 5.964 mg/kg IV
ASSAY_METRIC: half-life (h)
Provide the reading as a plain figure in h.

stdin: Find the recorded half-life belonging to `C/C(=C\C=C\[C@@H](C)c1ccccn1)[C@H]1OC(=O)C[C@H](O)CC[C@@](C)(O)[C@@H](OC(=O)N2CCC(N3CCCCCC3)CC2)/C=C/[C@@H]1C` and report it.
stdout: 3.66

---

# PROTOCOL_SUMMARY: Mouse pharmacokinetic (PK) study
# Type: in vivo, CD-1 mice
# ASSAY_SETUP: mouse, plasma; CD-1 mice, 10 mg/kg PO
ASSAY_METRIC: AUC(0-inf) (µg·h/mL)
Provide the reading as a plain figure in µg·h/mL.

stdin: Find the recorded AUC(0-inf) belonging to C/C(=C\C=C\[C@@H](C)c1ccccn1)[C@H]1OC(=O)C[C@H](O)CC[C@@](C)(O)[C@@H](OC(=O)N2CCN(C)CC2)/C=C/[C@@H]1C [Compound 2] and report it.
stdout: 2.54

---

# PROTOCOL_SUMMARY: Mouse pharmacokinetic (PK) study
# Assay type: in vivo, CD-1 mice
# ASSAY_SETUP: mouse, plasma; CD-1 mice, 10 mg/kg PO (Table 7)
ASSAY_METRIC: AUC(0-t) (ng·h/mL)
Provide the reading as a plain figure in ng·h/mL.

stdin: Find the recorded AUC(0-t) belonging to C/C(=C\C=C\[C@@H](C)c1ccccn1)[C@H]1OC(=O)C[C@H](O)CC[C@@](C)(O)[C@@H](OC(=O)N2CCC(N3CCCCC3)CC2)/C=C/[C@@H]1C [Compound 4] and report it.
stdout: 7910

---

# Tested on: Panc 05.04 cells (mt SF3B1; Q699H and K700E mutations in SF3B1)
# PROTOCOL_SUMMARY: Cell viability assay (CellTiter-Glo, 72 hr), Panc 05.04
# Assay type: cell-based
# ASSAY_SETUP: Panc 05.04; 72 hr; negative value indicates cellular lethality
Kindly state Emax for each of the entries shown.
The answer should read as a number with its unit following.

stdin: Find the recorded Emax belonging to `C/C(=C\C=C\[C@@H](C)c1ccccn1)[C@H]1OC(=O)C[C@H](O)CC[C@@](C)(O)[C@@H](OC(=O)N2CCN(C)CC2)/C=C/[C@@H]1C` and report it.
stdout: -66.1%

stdin: Subsequent entry: `C/C(=C\C=C\[C@@H](C)c1ccccn1)[C@H]1OC(=O)C[C@H](O)CC[C@@](C)(O)[C@@H](OC(=O)N2CCC(N3CCCCCC3)CC2)/C=C/[C@@H]1C`
stdout: -90.8%

stdin: Subsequent entry: `C/C(=C\C=C\[C@@H](C)c1ccccn1)[C@H]1OC(=O)C[C@H](O)CC[C@@](C)(O)[C@@H](OC(=O)N2CCN(C3CCCCCC3)CC2)/C=C/[C@@H]1C`
stdout: -86.8%

stdin: Subsequent entry: `C/C(=C\C=C\[C@@H](C)c1ccccn1)[C@H]1OC(=O)C[C@H](O)CC[C@@](C)(O)[C@@H](OC(=O)N2CCC(N3CCCCC3)CC2)/C=C/[C@@H]1C`
stdout: -86.2%

---

# PROTOCOL_SUMMARY: Mouse pharmacokinetic (PK) study
# Assay type: in vivo, CD-1 mice
# ASSAY_SETUP: mouse, plasma; CD-1 mice, 13.307 mg/kg PO; read-out: AUCfinite
ASSAY_METRIC: AUC (ng·h/mL)
Provide the reading as a plain figure in ng·h/mL.

stdin: Find the recorded AUC belonging to C/C(=C\C=C\[C@@H](C)c1ccccn1)[C@H]1OC(=O)C[C@H](O)CC[C@@](C)(O)[C@@H](OC(=O)N2CCC(N3CCCCCC3)CC2)/C=C/[C@@H]1C [Compound 3] and report it.
stdout: 8140

---

# PROTOCOL_SUMMARY: Mouse pharmacokinetic (PK) study
# Assay type: in vivo, CD-1 mice
# ASSAY_SETUP: mouse, plasma; CD-1 mice, 5 mg/kg IV (Table 7)
ASSAY_METRIC: AUC(0-inf) (ng·h/mL)
Provide the reading as a plain figure in ng·h/mL.

stdin: Find the recorded AUC(0-inf) belonging to C/C(=C\C=C\[C@@H](C)c1ccccn1)[C@H]1OC(=O)C[C@H](O)CC[C@@](C)(O)[C@@H](OC(=O)N2CCC(N3CCCCC3)CC2)/C=C/[C@@H]1C [Compound 4] and report it.
stdout: 6620

---

# PROTOCOL_SUMMARY: Mouse pharmacokinetic (PK) study
# Assay type: in vivo, CD-1 mice
# ASSAY_SETUP: mouse, plasma; CD-1 mice, 5.964 mg/kg IV
ASSAY_METRIC: AUC(0-inf) (ng·h/mL)
Provide the reading as a plain figure in ng·h/mL.

stdin: Find the recorded AUC(0-inf) belonging to C/C(=C\C=C\[C@@H](C)c1ccccn1)[C@H]1OC(=O)C[C@H](O)CC[C@@](C)(O)[C@@H](OC(=O)N2CCC(N3CCCCCC3)CC2)/C=C/[C@@H]1C [Compound 3] and report it.
stdout: 6240
